pIC50, Beta-galactoside alpha-2,6-sialyltransferase 1 (Homo sapiens): measured values
For clarity, pIC50 is expressed as the negative log10 of concentration in mol/L.

# input Look up pIC50 for this molecule: `C[C@H](CCC(=O)OCCOCCOCCOCCN=[N+]=[N-])[C@H]1CC[C@H]2[C@@H]3CC[C@@H]4C[C@H](OC(=O)[C@H](CC(=O)O)Nc5ccc([N+](=O)[O-])c6nonc56)CC[C@]4(C)[C@H]3CC[C@]12C`
# output 5.31

# input Give its pIC50 value. Item: `C[C@H](CCC(=O)OCCOCCOCCOCCOCCN=[N+]=[N-])[C@H]1CC[C@H]2[C@@H]3CC[C@@H]4C[C@H](OC(=O)[C@H](CC(=O)O)NC(=O)c5ccc([N+](=O)[O-])cc5)CC[C@]4(C)[C@H]3CC[C@]12C`
# output 5.12

# input Would you mind telling me what pIC50 value was observed for `C[C@H](CCC(=O)OCCOCCN=[N+]=[N-])[C@H]1CC[C@H]2[C@@H]3CC[C@@H]4C[C@H](OC(=O)[C@H](CC(=O)O)Nc5ccc([N+](=O)[O-])c6nonc56)CC[C@]4(C)[C@H]3CC[C@]12C` ?
# output 5.36
